Please provide measured pKd for the entries that follow.
# test system: T1, DLG3_2, Q92796
# T1 sequence (Q92796 221-321, limits assumed, looked up): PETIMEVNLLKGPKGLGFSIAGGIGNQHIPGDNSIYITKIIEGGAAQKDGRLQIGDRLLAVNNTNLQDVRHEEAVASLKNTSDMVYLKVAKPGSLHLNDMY
# assay overview: holdup assay
# Design: key: below the threshold = too weak to quantify, mostly under pKd 3.1 to 4
# setup conditions: plain residues with an end cap or a label only (N-terminal biotin on a linker: ado-ado)
Give bare numbers.

Take a look at these entries with their results.
[[record]]
binder = "TETASVCTKV [SLC23A1, Q9UHI7]"
reported_result = 4.02

[[record]]
binder = "FVHPILQSAV [PRKCA, P17252]"
reported_result = 4.26


Now examine the next entry.
Asked: Using the record for EEPEERHTEL [CES2, O00748] , report its pKd.
Given back: 4.38
